experiment: Oral bioavailability study in dogs (plasma levels of compound of formula I); assay type: in vivo; settings: dog; oral administration to dogs; plasma level of compound of formula I
readout: AUC(0-inf) (ng·h/mL)
Answers are plain numbers, in ng·h/mL.

Challenge: Requested field: AUC(0-inf). Item: Cc1ccc(C(=O)NNC(=O)c2c(C)cccc2Cl)cc1C#Cc1cnc2ccccc2c1
Response given: 1190

###

assay: Oral bioavailability study in dogs (plasma levels of compound of formula I); assay type: in vivo; conditions: dog; oral administration to dogs; plasma level of compound of formula I
readout: Cmax

Challenge: Requested field: Cmax. Item: Cc1ccc(C(=O)NNC(=O)c2c(C)cccc2Cl)cc1C#Cc1cnc2ccccc2c1
Response given: 282 ng/mL

All figures here come from patent US12194153B2.
